src = paper PMC9795544

- target.or.test.system: OATP1B3 (Homo sapiens, UniProt Q9NPD5)
- Construct: expressed in transfected cells; host or cells: A431 cells
- Sequence (Q9NPD5 whole entry): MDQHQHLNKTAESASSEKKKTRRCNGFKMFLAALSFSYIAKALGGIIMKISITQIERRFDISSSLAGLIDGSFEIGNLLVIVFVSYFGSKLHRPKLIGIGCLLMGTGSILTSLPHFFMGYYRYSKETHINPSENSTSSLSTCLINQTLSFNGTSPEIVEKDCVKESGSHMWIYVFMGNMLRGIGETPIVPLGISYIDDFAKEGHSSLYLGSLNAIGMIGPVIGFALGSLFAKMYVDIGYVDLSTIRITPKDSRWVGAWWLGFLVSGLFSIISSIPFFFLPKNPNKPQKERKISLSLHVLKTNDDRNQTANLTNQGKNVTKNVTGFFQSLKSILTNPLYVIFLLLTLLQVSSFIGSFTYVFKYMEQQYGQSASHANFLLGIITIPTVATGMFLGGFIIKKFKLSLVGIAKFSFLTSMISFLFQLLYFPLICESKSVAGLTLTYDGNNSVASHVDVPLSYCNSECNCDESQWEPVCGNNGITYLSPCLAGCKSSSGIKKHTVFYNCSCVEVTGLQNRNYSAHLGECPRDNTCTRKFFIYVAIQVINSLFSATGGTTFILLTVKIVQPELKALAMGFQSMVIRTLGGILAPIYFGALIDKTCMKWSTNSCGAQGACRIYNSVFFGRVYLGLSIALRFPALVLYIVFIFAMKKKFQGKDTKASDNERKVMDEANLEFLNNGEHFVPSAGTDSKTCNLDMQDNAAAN
- procedure.details: Pyranine transport inhibition in A431 cells overexpressing OATP1B3
- Assay type: cell-based
- condition.parameters: initial three-point screen (1, 10, 100 μM), category by concentration needed for 50% inhibition; pyranine 20 μM, 30 min, pH 5.5

>  <compound>
O=C(NCc1ccccn1)c1ccc2c(c1)S(=O)(=O)c1ccccc1C2=O [B5]

>  <IC50 (μM) OATP1B3>
Activated

$$$$
>  <compound>
CCC(C)c1ccc(-n2c(SCC(=O)N3c4ccccc4CC3C)nc3ccccc3c2=O)cc1 (stereo not drawn) [G4]

>  <IC50 (μM) OATP1B3>
no effect

$$$$
>  <compound>
Cc1cc(C)c(C(=O)CSc2nc3ccccc3c(=O)n2Cc2ccc(F)cc2)c(C)c1 [H4]

>  <IC50 (μM) OATP1B3>
no effect

$$$$
>  <compound>
O=C(CCN1C(=O)NC2(CCCC2)C1=O)Nc1nc(-c2ccc3c(c2)CCC3)cs1 [D3]

>  <IC50 (μM) OATP1B3>
no effect

$$$$
>  <compound>
Fc1ccc(C2CC(c3cccs3)=NN2c2nc(-c3ccccc3)c3cc(Cl)ccc3n2)cc1 (stereo not drawn) [A5]

>  <IC50 (μM) OATP1B3>
no effect

$$$$
>  <compound>
O=C(COc1ccc([N+](=O)[O-])cc1)Nc1c(C(=O)N2CCOCC2)oc2ccccc12 [D7]

>  <IC50 (μM) OATP1B3>
no effect

$$$$
>  <compound>
CC(C)(C)c1ncc(NC(=O)c2ccccc2-c2ncc(-c3ccccc3)o2)cn1 [A7]

>  <IC50 (μM) OATP1B3>
Activated

$$$$
>  <compound>
Cc1cccc2nc(CSc3nc4sc5c(c4c(=O)n3Cc3ccccc3)CCCC5)cn12 [C5]

>  <IC50 (μM) OATP1B3>
no effect

$$$$
>  <compound>
Cc1ccc(N2C(=O)/C(=C\Nc3nc4ccccc4nc3N3CCCC3)c3ccccc3C2=O)c(C)c1 [G6]

>  <IC50 (μM) OATP1B3>
no effect

$$$$
